- system: T1, mouse SIRPα-Fc (mouse)
- T1 construct: a signal peptide may be part of the entry; also called Ms; Ms SIRPα-Fc
- T1 sequence (chain, as listed by the source limits assumed): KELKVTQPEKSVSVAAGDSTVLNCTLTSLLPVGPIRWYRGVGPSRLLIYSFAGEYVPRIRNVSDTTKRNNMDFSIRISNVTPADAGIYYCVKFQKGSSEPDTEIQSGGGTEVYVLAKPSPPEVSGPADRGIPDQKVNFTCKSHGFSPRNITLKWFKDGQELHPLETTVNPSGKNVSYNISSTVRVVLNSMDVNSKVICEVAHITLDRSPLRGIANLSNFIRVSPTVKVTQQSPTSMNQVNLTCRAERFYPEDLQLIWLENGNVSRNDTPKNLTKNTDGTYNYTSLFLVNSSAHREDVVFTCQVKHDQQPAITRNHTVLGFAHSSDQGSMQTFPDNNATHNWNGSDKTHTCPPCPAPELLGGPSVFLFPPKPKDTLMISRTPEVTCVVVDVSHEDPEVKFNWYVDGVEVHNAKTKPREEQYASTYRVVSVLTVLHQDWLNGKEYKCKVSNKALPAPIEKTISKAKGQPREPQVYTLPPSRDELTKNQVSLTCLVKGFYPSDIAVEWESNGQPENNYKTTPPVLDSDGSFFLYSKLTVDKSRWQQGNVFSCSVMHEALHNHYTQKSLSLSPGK
- assay.comment: BLI Octet, antigen-Fc on biosensor
parameter.measured: pKd
Bear in mind: pKd is minus log10 of a mol/L concentration; give just that figure.

binder	pKd
SIRPAB-18 (antibody, human IgG1, kappa, V domains shown) VH: QVQLQESGPGLVKPSQTLSLTCTVSGGSISSGGYYWSWIRQHPGKGLEWIGAIYYSGPIYYNPSLKSRVTISVDTSKNQFSLKLSSVTAADTAVYYCSKEGYHSGMDVWGQGTTVTVSS VL: DIQMTQSPSSLSASVGDRVTITCQASQDISNYLNWYQQKPGKAPKLLIYDASNLATGVPSRFSGSGSGTDFTFTISSLQPEDIATYYCQQFAYLPWTFGGGTKVEIKR	8.66
SIRPAB-21 (antibody, human IgG1, kappa, V domains shown) VH: QVQLQESGPGLVKPSQTLSLTCTVSGGSISSGGYYWSWIRQHPGKGLEWIGAIYYSGPIYYNPSLKSRVTISVDTSKNQFSLKLSSVTAADTAVYYCSKEGYHSGMDVWGQGTTVTVSS VL: DIQMTQSPSSLSASVGDRVTITCQASDDISDYLNWYQQKPGKAPKLLIYDASNLETGVPSRFSGSGSGTDFTFTISSLQPEDIATYYCQQFAYLPWTFGGGTKVEIKR	8.84
SIRPAB-20 (antibody, human IgG1, kappa, V domains shown) VH: QVQLQESGPGLVKPSQTLSLTCTVSGGSISSGGYYWSWIRQHPGKGLEWIGAIYYSGPIYYNPSLKSRVTISVDTSKNQFSLKLSSVTAADTAVYYCSKEGYHSGMDVWGQGTTVTVSS VL: DIQMTQSPSSLSASVGDRVTITCQASQDISDYLNWYQQKPGKAPKLLIYDADNLETGVPSRFSGSGSGTDFTFTISSLQPEDIATYYCQQFAYLPWTFGGGTKVEIKR	9.41

Turning now to a further record.
The binder SIRPAB-17 (antibody, human IgG1, kappa, V domains shown) VH: QVQLQESGPGLVKPSQTLSLTCTVSGGSISSGGYYWSWIRQHPGKGLEWIGAIYYSGPIYYNPSLKSRVTISVDTSKNQFSLKLSSVTAADTAVYYCAREGYHSGMDVWGQGTTVTVSS VL: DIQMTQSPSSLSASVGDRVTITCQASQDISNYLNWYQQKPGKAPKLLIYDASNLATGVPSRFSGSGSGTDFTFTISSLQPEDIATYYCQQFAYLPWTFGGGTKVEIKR showed pKd equal to 7.76
